Reference source for all entries: patent US20250101041A1

# System Tested: human mAChR M4 (Homo sapiens, UniProt P08173)
# Assay Text: mAChR M4 cell-based functional assay: calcium mobilization (Fluo-4, FDSS), potentiation of EC20 acetylcholine response in hM4-Gqi5 CHO-K1 cells
# Experimental Parameters: potentiation of EC20 acetylcholine response, calcium mobilization, human M4
Assay Readout: EC50 (nM)
Numeric only. Scale: nM

Below, 3 molecules whose answers are already recorded.
# Mol, Assay Readout, Quantitative Readout
data = [
    ("Cc1cc(=O)n2nc(N3CCc4ncc(-c5ccc(C)c(F)c5)cc4C3)c(C)c(C)c2n1", "EC50", 1130),
    ("[2H]C1([2H])Cc2ncc(Nc3cc(C)ncc3F)cc2C([2H])([2H])N1c1nn2c(=O)ccnc2cc1C", "EC50", 16),
    ("Cc1cc(F)c(F)cc1-c1cnc2c(c1)CN(c1nn3c(=O)ccnc3cc1C)CC2", "EC50", 78),
]

EC50 in this record for `Cc1ccc(-c2cnc3c(c2)CN(c2nn4c(=O)ccnc4cc2C)CC3)nc1` : 426

----------
Readings of pEC50 for the listed molecules
# System Tested: human mAChR M4 (Homo sapiens)
# Assay Text: mAChR M4 cell-based functional assay: calcium mobilization (Fluo-4, FDSS), potentiation of EC20 acetylcholine response in hM4-Gqi5 CHO-K1 cells
# Experimental Parameters: potentiation of EC20 acetylcholine response, calcium mobilization, human M4
pEC50 is a log-scale quantity: -log10 of the concentration expressed in molar.

Below, 3 molecules whose answers are already recorded.
# Molecule, Assay Readout, Quantitative Readout
records = [
    ("Cc1c(N2CCc3ncc(-c4cnccc4C(F)(F)F)cc3C2)nn2c(=O)cc(C(F)F)nc2c1C [Compound 1-189]", "pEC50", 6.29),
    ("Cc1cc2nccc(=O)n2nc1N1CCc2ncc(Nc3cc(C(F)(F)F)ncc3F)cc2C1 [Compound 2-152]", "pEC50", 5.88),
    ("Cc1cc(F)c(F)c(-c2cnc3c(c2)CN(c2nn4c(=O)cc(C)nc4cc2C)CC3)c1 [Compound 1-252]", "pEC50", 6.20),
]

pEC50 in this record for Cc1ncc(-c2cnc3c(c2)CN(c2nn4c(=O)ccnc4cc2C)CC3)s1 [Compound 1-5] : 6.37

pEC50 in this record for Cc1cc(=O)n2nc(N3CCc4ncc(-c5ccc(C)o5)cc4C3)c(C)c(C)c2n1 [Compound 1-305] : 6.50

pEC50 in this record for COc1ccc(C2CN(c3cnc4c(c3)CN(c3nn5c(=O)ccnc5cc3C)CC4)CCO2)cc1 (stereo not shown) [Compound 2-95] : 6.09

pEC50 in this record for Cc1cc2nccc(=O)n2nc1N1CCc2ncc(N3CCOC(c4cccc(F)c4)C3)cc2C1 (stereo not shown) [Compound 2-61] : 6.29

pEC50 in this record for Cc1ncccc1-c1cnc2c(c1)CN(c1nn3c(=O)cc(C(F)F)nc3c(C)c1C)CC2 [Compound 1-115] : 6.50

pEC50 in this record for COCc1cc(=O)n2nc(N3CCc4ncc(-c5cc(F)ccn5)cc4C3)c(C)cc2n1 [Compound 1-383] : 6.19

----------
# System Tested: human mAChR M4 (Homo sapiens, UniProt P08173)
# Construct: expressed in transfected cells; host or cells: CHO-K1 (American Type Culture Collection), stably expressing hM4 and Gqi5
# Sequence (P08173 1-479): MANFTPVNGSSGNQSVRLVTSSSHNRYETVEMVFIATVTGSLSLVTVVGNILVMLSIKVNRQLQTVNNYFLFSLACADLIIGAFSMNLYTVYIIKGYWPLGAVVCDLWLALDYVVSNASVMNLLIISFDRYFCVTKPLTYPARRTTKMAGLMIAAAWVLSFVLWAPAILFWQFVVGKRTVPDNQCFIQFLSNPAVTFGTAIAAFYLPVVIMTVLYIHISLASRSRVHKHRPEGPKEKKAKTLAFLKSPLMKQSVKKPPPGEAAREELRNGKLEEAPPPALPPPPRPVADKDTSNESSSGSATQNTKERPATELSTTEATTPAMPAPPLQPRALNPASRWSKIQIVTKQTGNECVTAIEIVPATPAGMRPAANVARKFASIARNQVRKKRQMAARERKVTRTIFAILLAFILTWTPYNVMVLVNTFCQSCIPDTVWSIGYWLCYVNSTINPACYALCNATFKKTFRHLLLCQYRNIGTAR
# Assay Text: mAChR M4 cell-based functional assay: calcium mobilization (Fluo-4, FDSS), potentiation of EC20 acetylcholine response in hM4-Gqi5 CHO-K1 cells
# Experimental Parameters: CHO-K1, % ACh maximum at 30 μM; human M4
Assay Readout: Emax at 30 µM (%)
Numeric only. Scale: %

# Molecule, System Tested, Reading Unit, Emax at 30 µM
measured = [
    ("COc1ccc(-c2cnc3c(c2)CN(c2nn4c(=O)cc(C(F)F)nc4c(C)c2C)CC3)cn1 [Compound 1-170]", "human mAChR M4 (Homo sapiens, UniProt P08173)", "%", 95),
    ("Cc1cc2nccc(=O)n2nc1N1CCc2ncc(NC(=O)C3CC3)cc2C1 [Compound 2-108]", "human mAChR M4 (Homo sapiens, UniProt P08173)", "%", 56),
    ("Cc1cc2n(n1)CCCN2c1cnc2c(c1)CN(c1nn3c(=O)cc(C(F)F)nc3cc1C)CC2 [Compound 2-28]", "human mAChR M4 (Homo sapiens, UniProt P08173)", "%", 85),
    ("Cc1cc(=O)n2nc(N3CCc4ncc(-c5cnc(F)cc5C)cc4C3)c(C)cc2n1 [Compound 1-209]", "human mAChR M4 (Homo sapiens, UniProt P08173)", "%", 88),
]

Measured Emax at 30 µM (human mAChR M4 (Homo sapiens, UniProt P08173)), entry Cc1cc(=O)n2nc(N3CCc4ncc(-c5cc(F)c(F)cc5F)cc4C3)c(C)cc2n1 [Compound 1-208] : 86

Measured Emax at 30 µM (human mAChR M4 (Homo sapiens, UniProt P08173)), entry Cc1cc(=O)n2nc(N3CCc4ncc(-c5cc(F)ccc5F)cc4C3)c(C)cc2n1 [Compound 1-236] : 87

Measured Emax at 30 µM (human mAChR M4 (Homo sapiens, UniProt P08173)), entry Cc1cc(-c2cnc3c(c2)CN(c2nn4c(=O)cc(C)nc4cc2C)CC3)ccn1 [Compound 1-239] : 78

Measured Emax at 30 µM (human mAChR M4 (Homo sapiens, UniProt P08173)), entry Cc1ccc(-c2cnc3c(c2)CN(c2nn4c(=O)cc(C)nc4cc2C)CC3)cn1 [Compound 1-30] : 69
